Items are presented alongside their recorded IC50.
- Tested on: K562
- Test: Concentration required to inhibit 50% of the cell proliferation of the Human myelogenous leukemia K562 cells.
- Assay type: functional, cell-based
Response body: numeric value in µM, unit text excluded.

NC(=O)c1csc([C@@H]2O[C@H](CO)[C@@H](O)[C@H]2O)c1 : 1.7

## Input Request the reported IC50 associated with NC(=O)c1csc([C@@H]2S[C@H](CO)[C@H](O)C2O)c1 (stereo partly drawn)
## Output 67

## Input Which IC50 value is on record for NC(=O)c1coc([C@@H]2S[C@H](CO)[C@H](O)C2O)c1 (stereo partly drawn) ?
## Output 4700
